Reference source: PubChem BioAssay (NCI)

system: HS 578T breast; assay: NCI tumour cell line growth inhibition, 48 h
Mark 0 (no) for TGI values under 20 µM, and 1 (yes) for everything at or above.

{"Compound": "CC(=O)N1N=C(c2cc(C)ccc2O)CC1c1cccc(Cl)c1 (stereo not given)", "Assay target": "HS 578T breast", "Category": "1 (yes)"}
{"Compound": "O=CC1C(Cl)=Nc2nc3ccccc3n2C1c1ccc([N+](=O)[O-])cc1 (stereo not given)", "Assay target": "HS 578T breast", "Category": "1 (yes)"}
{"Compound": "CCOC(=O)C(NC(=O)CC)(Nc1ccc(S(=O)(=O)Nc2ncccn2)cc1)C(F)(F)F (stereo not given)", "Assay target": "HS 578T breast", "Category": "1 (yes)"}
{"Compound": "O=C1c2ccccc2C(=O)c2c1ccc(C(Br)Br)c2Cl", "Assay target": "HS 578T breast", "Category": "0 (no)"}
{"Compound": "Nc1cc(N)c2nc(-c3ccccc3)c(Sc3ccc(Cl)c(Cl)c3)nc2c1", "Assay target": "HS 578T breast", "Category": "1 (yes)"}
{"Compound": "CC(C)=CCC/C(C)=C/CC/C(C)=C/CCN(C)CCO", "Assay target": "HS 578T breast", "Category": "0 (no)"}
{"Compound": "O=C(Nc1ccccc1Cl)c1cc(S(=O)(=O)Nc2n[nH]c(=O)n2-c2ccccc2)c(S)cc1Cl", "Assay target": "HS 578T breast", "Category": "1 (yes)"}
{"Compound": "Brc1ccc2[nH]cc([C@H]3CN[C@@H](c4c[nH]c5ccc(Br)cc45)CN3)c2c1", "Assay target": "HS 578T breast", "Category": "1 (yes)"}
{"Compound": "COc1ccc2c(-c3ccc(OCCN(C)C)cc3)c(Oc3ccccc3)c(=O)oc2c1", "Assay target": "HS 578T breast", "Category": "1 (yes)"}
{"Compound": "Cc1ccc(Nc2nc(C)c(C(=O)CC(=O)C(=O)Nc3ccc(Cl)cc3)s2)cc1", "Assay target": "HS 578T breast", "Category": "1 (yes)"}
{"Compound": "CCOc1ccc2nc(S/C(=C/C=C(C#N)C#N)c3ccc(Cl)cc3)sc2c1", "Assay target": "HS 578T breast", "Category": "0 (no)"}
{"Compound": "CCCCCCCCCCCCCCCCCCNc1ccn(C2OC(CO)C(OP(=O)(O)OCC(COP(=O)(O)OCC3OC(n4cc(F)c(NCCCCCCCCCCCCCCCCCC)nc4=O)CC3O)OC(=O)CCCCCCCCCCCCCCC)C2O)c(=O)n1 (stereo not given)", "Assay target": "HS 578T breast", "Category": "1 (yes)"}
{"Compound": "CC(C)OC(=O)c1ccc(CCc2cc(O)c(Br)cc2O)cc1", "Assay target": "HS 578T breast", "Category": "1 (yes)"}
{"Compound": "CN1C(=O)/C(=C/c2c(Cl)[nH]c3ccccc23)c2ccccc21", "Assay target": "HS 578T breast", "Category": "1 (yes)"}
{"Compound": "Nc1ccc2c(c1)S(=O)(=O)c1cc(O)ccc1O2", "Assay target": "HS 578T breast", "Category": "1 (yes)"}
